Target: 4'-phosphopantetheinyl transferase PptT (Mycobacterium tuberculosis, UniProt O33336)
Sequence (O33336 whole entry): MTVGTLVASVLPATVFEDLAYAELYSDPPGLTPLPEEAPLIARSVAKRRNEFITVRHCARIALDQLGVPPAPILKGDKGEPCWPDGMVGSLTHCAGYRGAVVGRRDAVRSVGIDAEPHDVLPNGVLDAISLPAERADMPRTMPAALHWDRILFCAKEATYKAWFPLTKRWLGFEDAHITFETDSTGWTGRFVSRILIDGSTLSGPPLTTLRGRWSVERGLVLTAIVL
Experiment: Inhibition of Mycobacterium tuberculosis H37Rv PptT by BpsA-coupled assay
assay_metric: IC50 (µM)
Write it as a number; the unit µM goes unstated.

Some molecules with recorded IC50:
[[record]]
chemical_structure = "CCc1cccc(CC)c1/N=C1\\CN(CC)C(=N)N1"
tested_target = "4'-phosphopantetheinyl transferase PptT (Mycobacterium tuberculosis, UniProt O33336)"
assay_metric = "IC50"
value_reported = 16

[[record]]
chemical_structure = "CCNc1cc(C)cc(Nc2c(CC)cccc2CC)n1"
tested_target = "4'-phosphopantetheinyl transferase PptT (Mycobacterium tuberculosis, UniProt O33336)"
assay_metric = "IC50"
value_reported = 6.4

[[record]]
chemical_structure = "CCc1cccc(CC)c1/N=C1\\CNC(=N)N1CC"
tested_target = "4'-phosphopantetheinyl transferase PptT (Mycobacterium tuberculosis, UniProt O33336)"
assay_metric = "IC50"
value_reported = 84

[[record]]
chemical_structure = "CCNc1ccc(C)c(Nc2c(CC)cccc2CC)n1"
tested_target = "4'-phosphopantetheinyl transferase PptT (Mycobacterium tuberculosis, UniProt O33336)"
assay_metric = "IC50"
value_reported = 1.8

[[record]]
chemical_structure = "CCNc1cccc(Nc2c(CC)cccc2CC)n1"
tested_target = "4'-phosphopantetheinyl transferase PptT (Mycobacterium tuberculosis, UniProt O33336)"
assay_metric = "IC50"
value_reported = 3.3


**Q:** Lab request: please report IC50 under test system 4'-phosphopantetheinyl transferase PptT (Mycobacterium tuberculosis, UniProt O33336) for `CCNc1nc(Nc2c(CC)cccc2CC)ccc1C`
**A:** 23

**Q:** Tell me reported IC50 for `CCNc1ccc(F)c(Nc2c(CC)cccc2CC)n1` , tested with 4'-phosphopantetheinyl transferase PptT (Mycobacterium tuberculosis, UniProt O33336).
**A:** 12

**Q:** IC50 of `CCNc1ccc(C(F)(F)F)c(Nc2c(CC)cccc2CC)n1` on 4'-phosphopantetheinyl transferase PptT (Mycobacterium tuberculosis, UniProt O33336)?
**A:** 30

**Q:** Reported IC50 for 4'-phosphopantetheinyl transferase PptT (Mycobacterium tuberculosis, UniProt O33336), given `CCNc1nc(Nc2c(CC)cccc2CC)ccc1OC` ?
**A:** 87

---

Biological target: UniProtKB O33336
Assay: Inhibition of Mycobacterium tuberculosis PptT by fluorescence polarization assay
assay_metric: IC50 (nM)
Numbers only; they are read as nM.

**Q:** Item `C=C(NCC)NC(=O)Nc1c(CC)cccc1CC` has what recorded IC50?
**A:** 230

---

Reported IC50 values for a set of molecules
Biological target: Sodium channel protein type 5 subunit alpha (Homo sapiens)
Sequence (Q14524 whole entry): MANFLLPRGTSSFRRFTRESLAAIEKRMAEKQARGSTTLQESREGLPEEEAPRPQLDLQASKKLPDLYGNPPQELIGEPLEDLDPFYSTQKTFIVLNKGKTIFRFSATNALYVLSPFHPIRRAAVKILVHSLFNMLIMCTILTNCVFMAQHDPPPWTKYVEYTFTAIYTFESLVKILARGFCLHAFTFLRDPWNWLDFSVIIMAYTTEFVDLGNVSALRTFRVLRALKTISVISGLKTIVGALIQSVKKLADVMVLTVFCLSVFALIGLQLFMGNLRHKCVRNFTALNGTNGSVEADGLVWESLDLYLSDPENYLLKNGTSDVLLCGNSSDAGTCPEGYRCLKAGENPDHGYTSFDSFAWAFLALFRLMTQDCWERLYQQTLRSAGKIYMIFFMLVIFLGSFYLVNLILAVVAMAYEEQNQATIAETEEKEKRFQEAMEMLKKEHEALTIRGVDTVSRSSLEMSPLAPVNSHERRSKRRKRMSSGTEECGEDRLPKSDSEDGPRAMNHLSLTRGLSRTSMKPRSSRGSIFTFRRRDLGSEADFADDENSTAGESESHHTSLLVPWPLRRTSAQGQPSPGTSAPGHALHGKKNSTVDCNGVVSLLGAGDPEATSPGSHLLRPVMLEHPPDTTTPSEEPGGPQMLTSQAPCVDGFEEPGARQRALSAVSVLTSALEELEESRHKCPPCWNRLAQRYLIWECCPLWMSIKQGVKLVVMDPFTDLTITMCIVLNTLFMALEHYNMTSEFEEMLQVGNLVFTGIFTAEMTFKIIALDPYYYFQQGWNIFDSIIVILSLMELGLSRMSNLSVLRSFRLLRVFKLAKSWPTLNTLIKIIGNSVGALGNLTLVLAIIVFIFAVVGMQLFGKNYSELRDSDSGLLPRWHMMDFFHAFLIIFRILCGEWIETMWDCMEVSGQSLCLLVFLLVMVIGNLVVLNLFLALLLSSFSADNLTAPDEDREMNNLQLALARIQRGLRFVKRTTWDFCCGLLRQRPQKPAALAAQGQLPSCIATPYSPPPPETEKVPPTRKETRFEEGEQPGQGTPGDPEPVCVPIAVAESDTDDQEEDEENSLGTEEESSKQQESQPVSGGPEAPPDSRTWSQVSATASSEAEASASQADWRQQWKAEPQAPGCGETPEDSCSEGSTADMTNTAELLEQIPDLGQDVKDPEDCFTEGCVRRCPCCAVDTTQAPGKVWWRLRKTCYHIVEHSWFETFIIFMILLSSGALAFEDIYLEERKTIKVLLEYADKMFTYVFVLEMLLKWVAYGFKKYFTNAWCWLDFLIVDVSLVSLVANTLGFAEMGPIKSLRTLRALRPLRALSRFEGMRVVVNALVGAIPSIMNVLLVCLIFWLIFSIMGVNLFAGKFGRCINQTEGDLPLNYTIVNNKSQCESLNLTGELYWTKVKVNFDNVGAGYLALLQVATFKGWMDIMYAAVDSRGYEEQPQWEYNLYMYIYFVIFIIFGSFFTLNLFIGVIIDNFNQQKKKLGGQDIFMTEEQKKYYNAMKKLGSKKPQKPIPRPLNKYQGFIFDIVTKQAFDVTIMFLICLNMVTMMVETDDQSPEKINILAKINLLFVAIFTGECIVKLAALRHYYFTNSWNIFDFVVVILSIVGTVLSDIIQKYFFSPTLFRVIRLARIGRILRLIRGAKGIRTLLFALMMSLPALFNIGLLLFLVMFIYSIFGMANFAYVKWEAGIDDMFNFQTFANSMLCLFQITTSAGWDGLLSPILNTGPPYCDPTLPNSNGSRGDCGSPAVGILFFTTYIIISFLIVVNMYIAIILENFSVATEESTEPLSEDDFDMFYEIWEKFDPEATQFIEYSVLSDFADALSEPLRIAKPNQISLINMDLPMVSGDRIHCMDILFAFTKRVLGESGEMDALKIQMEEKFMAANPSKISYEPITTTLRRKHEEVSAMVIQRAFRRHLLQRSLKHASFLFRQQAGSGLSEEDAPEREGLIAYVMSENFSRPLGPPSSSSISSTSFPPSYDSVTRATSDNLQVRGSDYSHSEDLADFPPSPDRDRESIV
Assay: Inhibition of human Nav1.5 channel ion channel transfected in HEK cells by automatic patch clamp analysis
Write the answer as a number in µM, unit excluded.

**Q:** Form field: reported IC50 of `CCc1cccc(CC)c1Nc1cccc(NC)n1`
**A:** 3.8

**Q:** What value of measured IC50 is listed for `CCNc1ccc(C(F)(F)F)c(Nc2c(CC)cccc2CC)n1` ?
**A:** 14

**Q:** Sample `CCNc1cccc(Nc2c(CC)cccc2CC)n1` — what was its IC50?
**A:** 6.9

**Q:** Value lookup for IC50; key = `CCNc1cc(OC)cc(Nc2c(CC)cccc2CC)n1`
**A:** 3.7

**Q:** Fill in the blank: the reported IC50 of `C=C(NCC)NC(=O)Nc1c(CC)cccc1CC` is ____.
**A:** 3.8
